Record form. Attribute: TGI. Fill in for each entry.
tested on: PC-3 prostate; assay: NCI tumour cell line growth inhibition, 48 h

Some entries whose results are on file:
Entry CC1(C)OC2C(CO)OC(n3ccc(N)nc3=O)C2O1 (configuration not stated) ; assay system PC-3 prostate; TGI recorded at > 100 µM

Entry COC(=O)CC(CNC(=O)OCc1ccccc1)OCc1ccc(OC)cc1 (configuration not stated) ; assay system PC-3 prostate; TGI recorded at > 100 µM

Entry `O=C1CCCC2=C1CC1=C(CCCC1=O)N2c1ccc([N+](=O)[O-])cc1` ; assay system PC-3 prostate; TGI recorded at > 100 µM

Entry `O=C(O)c1cccc(OCCOc2cccc(C(=O)O)c2[N+](=O)[O-])c1[N+](=O)[O-]` ; assay system PC-3 prostate; TGI recorded at > 100 µM

Entry `N#Cc1c2ccccc2c2nnc3ccc(C(F)(F)F)cc3n12` ; assay system PC-3 prostate; TGI recorded at > 100 µM

Please state TGI for every compound in the list that follows.
1. Cc1cc(=O)oc2cc(OC(=O)Nc3ccccc3)ccc12
2. CCN1C(=O)N(CC)C2C1NC(=S)N2/N=C/C=C/c1ccccc1OC (configuration not stated)
3. O=C1NC(=O)C(c2ccccc2)=C1Nc1ccccc1
4. COc1cc2cc3c4cc(OC)c(OC)cc4cc[n+]3c(C)c2cc1OC
5. Cc1cc(C)c(NC(=O)/C=C/c2ccccc2)c(C)c1

# output
> 100 µM
> 100 µM
> 25 µM
> 100 µM
> 100 µM

Please state TGI for every compound in the list that follows.
1. Cn1c(NCC(CN2CCCC2)OC(=O)c2ccccc2)cc(=O)n(C)c1=O (configuration not stated)
2. S=C(Nc1ccc2c(c1)oc1ccccc12)c1cccs1
3. O=C(c1cccs1)c1nc2cc(Cl)ccc2[n+]([O-])c1C(F)(F)F
4. CCCCCCCc1cscc1-c1cscc1Br
5. C/C(=C\CNc1ncnc2c1ncn2CCC(=O)OC(C)(C)C)CO
6. COc1ccccc1NC(=O)C(=O)Cc1cnc2ccccc2n1
7. Cc1ccc(SCC(CF)OC(C)n2cnc3c(Cl)nc(N)nc32)cc1 (configuration not stated)

# output
1. > 100 µM
2. > 100 µM
3. > 100 µM
4. > 100 µM
5. > 100 µM
6. > 100 µM
7. > 100 µM

Please state TGI for every compound in the list that follows.
1. N#CCC1C2CC3C(C2=O)C13 (configuration not stated)
2. CC(CNC(=O)c1ccccc1)(CNC(=O)c1ccccc1)[N+](=O)[O-]

# output
1. > 100 µM
2. > 100 µM

Please state TGI for every compound in the list that follows.
1. Cn1nc(-c2ccccc2)c2c(-c3ccccc3)c3cc(Cl)ccc3nc21
2. CCCNCC(O)CNc1ccc(NCC(O)CNCCC)c2c1C(=O)c1ccccc1C2=O (configuration not stated)
3. Cc1cc(C(O)(c2ccc(Nc3ccccc3)cc2)c2ccc(Nc3ccc(S(=O)(=O)O)cc3)cc2)ccc1N (configuration not stated)
4. O=Cc1ccc(-c2ccc(-c3ccc(C=O)o3)[se]2)o1
5. O=c1[nH]c2ccccc2n2cc3ccccc3c12

# output
1. > 100 µM
2. 4.7 µM
3. 6.18 µM
4. > 100 µM
5. 29.1 µM

====

system: COLO 205 colon; experiment: NCI tumour cell line growth inhibition, 48 h
Record form. Attribute: TGI. Fill in for each entry.

Some entries whose results are on file:
Value of measured TGI for the entry `COc1ccc(/C=C/C(=O)c2ccc(Nc3nc(Nc4ccc(F)cc4)nc(Nc4ccc(Cl)cc4)n3)cc2)cc1` : > 100 µM

Value of measured TGI for the entry CC(C)COP(C)(=O)C(N)(C(F)(F)F)C(F)(F)F (stereo unspecified) : > 100 µM

Value of measured TGI for the entry `O=C1CCSc2nc(-c3ccc4c(c3)OCO4)nn21` : > 10 µM

Value of measured TGI for the entry Cc1ccc(SCC(CF)OC(C)n2cnc3c(Cl)nc(N)nc32)cc1 (stereo unspecified) : > 100 µM

Value of measured TGI for the entry `CCCCOC(=O)NC(Nc1ccc(S(=O)(=O)Nc2ncccn2)cc1)(C(F)(F)F)C(F)(F)F` : > 100 µM

// switching to the query compound
Value of measured TGI for the entry `COC(=O)[C@]1(C)CCC[C@]2(C)[C@@H](CCC(=O)C(C)C)[C@]3(C=O)O[C@@H]3C[C@H]21` : > 100 µM
